- Tested on: K-562 leukemia
- Procedure details: NCI-60 one-dose screen, 48 h
- Condition set: 10 µM unless noted
- Description: Cells are grown in 96 well plates and exposed to the test compound for 48 hours. Compounds are tested at a single concentration, which is 10^-5 M for most compounds. The reported endpoint is percent growth (GI% or GIPRCNT), where numbers from 0 - 100% represent growth inhibition, and numbers from -100% - 0 represent cell death. For example, a value of 40 represents 60% growth inhibition. A value of 0 means no net growth occurred over the course of the experiment. […]
This is part of a sample that, as a whole, favours compounds with a hit. Of some 83,000 tested, about 20% had one in any assay. Activity calls are given as the source filed them. How the source made its calls: active means growth percent below 10; inactive means the rest.
Outcome codes: active, inactive

Molecule: COc1ccc(-n2c(=S)sc3c(Cl)nc(C)nc32)c(OC)c1
Label value: active

Molecule: Nc1nnc(-c2ccc3ccccc3c2O)o1
Label value: inactive

Molecule: C=C[C@@H]1C[C@H](O)Cc2c(C)cc(C)cc2N1
Label value: inactive

Molecule: CN1CCN(Cc2ccc(NC(=O)c3cncc(C#Cc4cnc(N)c5ccncc45)c3)cc2C(F)(F)F)CC1
Label value: active

Molecule: CC(C)(C)OC(=O)NCCc1ccc(N=C=S)cc1
Label value: inactive

Molecule: Cc1cc(C2(c3cc(C)c(O)cc3C)OS(=O)(=O)c3ccccc32)c(C)cc1O
Label value: inactive

Molecule: O=C(Oc1ccccc1[N+](=O)[O-])C1CCCN1C(=O)OCc1ccccc1 (stereo unspecified)
Label value: inactive

Molecule: COc1ccc(Nc2nc(N)nc3c2CCN(Cc2ccc(OC)cc2OC)C3=O)cc1
Label value: inactive

Molecule: CC(C)(C)n1cc(-c2ccnc(NCCCNS(=O)(=O)c3cccc(F)c3)c2)c(-c2cccc(O)c2)n1
Label value: active

Molecule: OCCCCCCNc1ncnc2cc(Cl)ccc12
Label value: inactive

Molecule: COc1cc(-c2nn(-c3cccc(NC(=O)c4ccc(Cl)c(C(F)(F)F)c4)c3)cc2-c2ccncc2)ccc1Cl
Label value: active
